Compiled IC50 measurements on Glucocorticoid receptor (Homo sapiens, UniProt P04150) taken from the literature.
Sequence (P04150 whole entry): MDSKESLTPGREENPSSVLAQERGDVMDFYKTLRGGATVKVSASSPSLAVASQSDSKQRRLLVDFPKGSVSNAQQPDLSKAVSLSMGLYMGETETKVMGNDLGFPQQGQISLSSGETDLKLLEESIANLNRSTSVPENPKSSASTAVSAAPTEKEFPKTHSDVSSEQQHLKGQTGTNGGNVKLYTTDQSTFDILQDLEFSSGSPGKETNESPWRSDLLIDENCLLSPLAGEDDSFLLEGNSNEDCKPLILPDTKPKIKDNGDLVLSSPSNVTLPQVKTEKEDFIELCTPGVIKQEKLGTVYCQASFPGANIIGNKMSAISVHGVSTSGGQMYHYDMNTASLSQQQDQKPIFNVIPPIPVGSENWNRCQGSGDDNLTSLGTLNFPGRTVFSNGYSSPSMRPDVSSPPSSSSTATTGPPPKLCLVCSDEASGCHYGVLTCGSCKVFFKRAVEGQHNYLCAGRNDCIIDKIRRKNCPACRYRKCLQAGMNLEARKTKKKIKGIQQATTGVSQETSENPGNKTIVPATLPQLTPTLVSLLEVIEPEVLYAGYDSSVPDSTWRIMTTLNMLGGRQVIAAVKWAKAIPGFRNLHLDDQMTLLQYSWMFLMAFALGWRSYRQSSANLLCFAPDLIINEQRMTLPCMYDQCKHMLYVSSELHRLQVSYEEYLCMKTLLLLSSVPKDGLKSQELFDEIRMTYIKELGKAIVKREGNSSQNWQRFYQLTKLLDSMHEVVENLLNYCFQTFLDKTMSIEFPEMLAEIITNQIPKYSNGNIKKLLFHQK
A number alone suffices; assume µM.

[
  {
    "compound": "COc1ccc([C@@H]2[C@@H](C)[C@H](C)[C@H]2c2ccc(OC)c(OC)c2)cc1OC",
    "outcome_measure": "IC50",
    "value_reported": 13
  },
  {
    "compound": "Cc1cc(C)cc(CC(O)(CC(C)(C)c2cc(F)ccc2O)C(=O)Nc2ccc3c(c2)COC3=O)c1 (stereo not drawn)",
    "outcome_measure": "IC50",
    "value_reported": 0.47
  },
  {
    "compound": "CC[C@@](c1ccc(C(F)(F)F)cc1)(C(C)O)n1ncc2c(NS(C)(=O)=O)cc(F)cc21 (single isomer, unassigned; diastereomer B)",
    "outcome_measure": "IC50",
    "value_reported": 4.02
  },
  {
    "compound": "CC/C=C/COC(C)C1=CC(C)(C)Nc2ccc(-c3ccccc3OC)cc21 (stereo not drawn)",
    "outcome_measure": "IC50",
    "value_reported": 0.565
  }
]

Okay, now this compound:
Task: # query: IC50 | item Cc1cc(F)ccc1-n1nc(C(F)(F)F)cc1-c1cc(C)c2c(c1)NC(=O)CO2 | system: Glucocorticoid receptor (Homo sapiens, UniProt P04150)
Output: 0.47
